The measured values listed here are drawn from a melting point compilation (Tetko et al.; mined from patent text by program, amines drawn as free bases though some values may be those of a salt).

Measured Parameter: melting point

Reference set (4 entries):
O=C(O)c1ccc(-c2nc(-c3cc(Cl)sc3Cl)cs2)cc1 :: 266 to 267 °C
CC(C)c1ccc2c(c1)OC1(O)c3ccccc3C(=O)C21O (stereo unspecified) :: 195 to 198 °C
CN1CCC(=C2c3ccsc3C(=O)Cn3ccnc32)CC1 :: 153 °C
CC1=CC(c2cccc(Cl)c2)C(c2cccs2)=NN1 (stereo unspecified) :: 109 °C

Task: Please supply the value of reported melting point for the item CCOCCn1c(N2CCCN(CCC3(c4ccccc4)CCN(C(=O)c4cc(OC)c(OC)c(OC)c4)C3)CC2)nc2ccccc21 (stereo unspecified)
Output: 82 to 94 °C

Task: Please supply the value of reported melting point for the item CCCC=Cc1c(C(C)C)nc(C(C)C)c(CO)c1-c1ccccc1C
Output: 76 to 79 °C

Task: Please supply the value of reported melting point for the item Fc1c(F)c(Br)c2nsnc2c1Br
Output: 148 to 149 °C

Task: Please supply the value of reported melting point for the item O=C(c1ccco1)C1C(=O)N(C(=O)Nc2ccc(F)cc2F)c2ccccc21 (stereo unspecified)
Output: 191 to 192 °C

Task: Please supply the value of reported melting point for the item CC(C#N)=C1CCN(c2ccc(N3C[C@@H](CNNCC(=O)O)OC3=O)cc2F)CC1
Output: 141 to 142 °C

Task: Please supply the value of reported melting point for the item COc1ccc2[nH]c(SCc3nccc(N4CCCCC4)c3Cl)nc2c1
Output: 145 to 147 °C

Task: Please supply the value of reported melting point for the item O=S(=O)(CCCCl)c1ccc(Cl)cc1
Output: 69 to 72 °C

----------
Measured Parameter: melting point

Reference set (2 entries):
O=Cc1cc2n(n1)-c1ccc(Cl)cc1C(c1ccccc1)NC2=O (stereo not given) :: 276 to 278 °C
Cc1noc(NC(=O)N2CCC(c3nc(-c4ccc(F)cc4)cs3)CC2)c1C :: 170 to 171 °C

Task: Please supply the value of reported melting point for the item CC=C1C(=O)c2ccccc2OC1c1ccccc1 (stereo not given)
Output: 47 to 49 °C

Task: Please supply the value of reported melting point for the item Fc1ccc([C@H]2CC[C@H](N3CCC(Cc4cc(F)ccc4F)CC3)CC2)cc1
Output: 80 to 81 °C

Task: Please supply the value of reported melting point for the item O=C(NC(=O)N(SC(Cl)(Cl)Cl)c1ccc(Oc2ccc(C(F)(F)F)cc2Cl)cc1)c1ccccc1Cl
Output: 68 to 71 °C

----------
Measured Parameter: melting point

Reference set (5 entries):
C(#Cc1cccnc1)C1=CCN(Cc2c[nH]c3ncccc23)CC1 :: 170 to 172 °C
Cc1ncccc1Cn1c(CO)nc(C(C)C)c1Sc1cc(Cl)cc(Cl)c1 :: 127 °C
CC(=O)N1C(=O)C(C(=O)c2cccs2)c2ccccc21 (stereo unspecified) :: 139 to 140 °C
C=CCC1=C(C)C(OC(=O)C2C(C=CC(C)=O)C2(C)C)CC1=C (stereo unspecified) :: < 50 °C
COCc1cc(-c2nc(-c3cnc(N)c(C)c3)no2)ccc1-c1ccccc1F :: 162 to 164 °C

Task: Please supply the value of reported melting point for the item CC(=O)C1=C(Nc2ccc(C3=NNC(=O)CC3)cc2)CC(C)(C)CC1=O
Output: 212 to 214 °C

Task: Please supply the value of reported melting point for the item CCOC(=O)C1=C(C)NC(C)=C(C(=O)OCC)C1c1nc(-c2ccc(OC)cc2)c(-c2ccc(OC)cc2)s1
Output: 177 to 178 °C

Task: Please supply the value of reported melting point for the item Nc1ncnc2c1nnn2C1C=CCC1 (stereo unspecified)
Output: 207 to 208 °C

Task: Please supply the value of reported melting point for the item COC(=O)[C@]1(F)[C@H]2[C@H](O)CC(=O)[C@H]21
Output: 61 to 62 °C

Task: Please supply the value of reported melting point for the item CNc1nc(F)c(OC(F)F)c(Cl)n1
Output: 57 to 61 °C

----------
melting point by entry:

Reference set (3 entries):
CON(C)Cc1nc2c(N)nc3cc(OCc4ccccc4)ccc3c2n1CC1CCOCC1 :: 159 to 161 °C
CN=C(NC#N)NCCCSCc1nsc(NC(=N)N)n1 :: 117 to 120 °C
CCCc1c(OCCCOc2ccc(C(=O)OCCCN(C)C)cc2F)ccc(C(C)=O)c1O :: 55 to 56 °C

Task: Please supply the value of reported melting point for the item O=C1Nc2cccnc2N(C(=O)CN2CCN(CCO)CC2)c2ccccc21
Output: 197 to 200 °C

Task: Please supply the value of reported melting point for the item Cc1c(-c2ccccc2)oc2c(COCCCl)cccc2c1=O
Output: 102 to 103 °C

----------
Measured Parameter: melting point

CCN1CCC(c2c[nH]c3ccc(NC(=N)c4cccs4)cc23)CC1 :: 150 to 152 °C
CC(=O)COc1cc2c3ccccc3n(Cc3ccccc3)c2cn1 :: 141 to 142 °C
COCCC1=C(C)C(=Cc2ccc(S(N)(=O)=O)cc2)c2ccc(OC)cc21 :: 140 °C
O=C([C@H]1CCc2cc(Cl)c(Cl)cc21)N1CCSC[C@H]1CN1CCCC1 :: 123 to 124 °C
CCCCCCCCCCCCCCCCCCOc1cc(OCCCP(=O)(OCC)OCC)cc(C(=O)O)c1 :: 53 to 55 °C

Task: Please supply the value of reported melting point for the item C#CCc1c(O)nc(C)nc1O
Output: > 300 °C

Task: Please supply the value of reported melting point for the item CN(C)C=C(C(=O)C(C)(C)C)n1ccnc1
Output: 45 to 50 °C

Task: Please supply the value of reported melting point for the item Cc1cc([Si](C)(C)C)c(C)cc1[Si](C)(C)C
Output: 56 to 57.5 °C

Task: Please supply the value of reported melting point for the item CC(C)(O)c1ccc(-c2cnc3[nH]c(=O)n(CC4CCOCC4)c3n2)cn1
Output: 207 to 209 °C

Task: Please supply the value of reported melting point for the item COC(=O)C(NS(=O)(=O)c1ccc(-c2ccc(NC(=O)c3cc4ccccc4o3)cc2)cc1)C(C)C (stereo not given)
Output: 195 to 200 °C

----------
melting point by entry:

CC(C)SN(C)C(=O)Nc1ccc(Cl)c(Cl)c1 :: 65 °C
CCCCOc1cc2c(c3c1OC(C)(C)C3)C(c1ccccc1)=NC(C)(C)C2 :: 99 to 101 °C
COC(=O)CNc1cc(O)c(C(C)=O)c(OC)c1 :: 114 to 115 °C
CCS(=O)(=O)N(Cc1cccnc1)c1ccc(Cl)cc1 :: 104 to 106 °C
COC(=O)C(=CNc1cc(-c2ccccc2Cl)sc1C(=O)O)SC :: 80 to 85 °C
COCCOc1ccc([N+](=O)[O-])cc1[N+](=O)[O-] :: 31 to 33 °C

Task: Please supply the value of reported melting point for the item CC(C)C[C@H](NC(=O)OCc1ccccc1)C(=O)N[C@@H](C(C)C)[C@@H](O)c1c(-c2ccccc2)c1=O
Output: 84 to 94 °C

Task: Please supply the value of reported melting point for the item CC(C)(C)OC(=O)N1CCN(c2c(F)cc(N3CC(CO)OC3=O)cc2F)CC1 (stereo unspecified)
Output: 164 to 166 °C

Task: Please supply the value of reported melting point for the item COCC(NC(C)=O)C(=O)NCc1ccccc1 (stereo unspecified)
Output: 142 to 143 °C

Task: Please supply the value of reported melting point for the item COc1nc(C(C)(C)O)cnc1NS(=O)(=O)c1cccc(Cl)c1Cl
Output: 192 to 193 °C

Task: Please supply the value of reported melting point for the item COc1ccc2cc(-n3c(C)nnc3C)cc(C)c2n1
Output: 211 to 213 °C

----------
melting point by entry:

O=C(O)[C@H]1CCCN1C(=O)CCS :: 68 to 70 °C

Task: Please supply the value of reported melting point for the item CCOC(=O)c1ocnc1C
Output: 31 to 33 °C

Task: Please supply the value of reported melting point for the item CC(=O)NC(=O)CCc1ccc(OCCc2nc(-c3ccccc3)oc2C)cc1
Output: 128 to 129 °C

----------
melting point by entry:

Reference set (4 entries):
CCOCc1nc2c(N)nc3ccccc3c2n1CC(C)(C)CS(=O)(=O)NC :: 161 to 163 °C
C[C@@H](CO)CCC[C@@H](C)[C@H]1C(=O)C[C@H]2[C@@H]3CC=C4C[C@@H](O)CC[C@]4(C)[C@H]3CC[C@]12C :: 167 to 169 °C
CC(C)(C)NS(=O)(=O)c1ccc([N+](=O)[O-])cc1 :: 105 to 109 °C
CCS(=O)(=O)c1nc2c(cc1F)c(=O)c(C(=O)O)cn2C1CC1 :: 240 to 242 °C

Task: Please supply the value of reported melting point for the item COc1ccc(OC2COc3ccc(O)cc3C2O)cc1 (stereo unspecified)
Output: 187 to 189 °C

Task: Please supply the value of reported melting point for the item O=Cc1cc(Cl)c2c(c1)CCCO2
Output: 51 °C

Task: Please supply the value of reported melting point for the item CNc1nc(-c2ccccc2)c(-c2nc3ccccc3c(=O)n2-c2ccccc2C)s1
Output: 220 to 225 °C

Task: Please supply the value of reported melting point for the item O=c1[nH]c2c(Cl)cc(Cl)cc2c2nc(-c3ccccc3)nn12
Output: 309 to 311 °C

Task: Please supply the value of reported melting point for the item COc1ccc(CC(N)=O)cc1OC
Output: 142 to 144 °C

Task: Please supply the value of reported melting point for the item CC1(C)CC(=O)C2=C(C1)NC1=C(C(=O)CC(C)(C)C1)C2c1ccc2ccccc2c1
Output: > 300 °C

Task: Please supply the value of reported melting point for the item CCOP(=O)(OCC)C1CCc2cc(C(F)(F)F)cc3[nH]c(=O)c(=O)n1c23 (stereo unspecified)
Output: 161 °C

Task: Please supply the value of reported melting point for the item COc1ccc2c(c1)C(c1ccccc1)NC(=S)N2CC1CC1 (stereo unspecified)
Output: 146 to 147 °C

Task: Please supply the value of reported melting point for the item COc1cc(Nc2nccc(-c3sc(N)nc3C)n2)cc(OC)c1
Output: 269 to 271 °C

Task: Please supply the value of reported melting point for the item COC(=O)Cc1cc2c(s1)NC(=O)C(C)N=C2c1ccccc1Cl (stereo unspecified)
Output: 185 to 190 °C

Task: Please supply the value of reported melting point for the item COc1ccc2cc(C(=O)O)n(CCNC(C)=O)c2c1
Output: 210 to 211 °C

Task: Please supply the value of reported melting point for the item CON(C)C(=O)CC(c1cccc(Br)c1)c1ccccc1C (stereo unspecified)
Output: 89 °C

Task: Please supply the value of reported melting point for the item COC(=O)c1ccoc1-c1cccc([N+](=O)[O-])c1
Output: 93 to 94 °C

Task: Please supply the value of reported melting point for the item CSCC[C@H](NC(=O)OC(C)(C)C)C(=O)Oc1ccc(NC(C)=O)cc1
Output: 225 to 228 °C

Task: Please supply the value of reported melting point for the item CCCCCCCCCCSc1ccc(C(=O)O)cc1
Output: 108 to 109 °C

Task: Please supply the value of reported melting point for the item CC(CCCCc1ccccc1)c1cc(O)c2c(c1)OC(C)(C)C1CCC(=O)C=C21 (stereo unspecified)
Output: 204 to 208 °C

Task: Please supply the value of reported melting point for the item Oc1nsc2c1CCCC2
Output: 157 to 158 °C
